Recorded IC50 values for a group of molecules are listed next.
Biological target: Na^+,K^+ -ATPase (Canis lupus familiaris)
Construct: Na^+,K^+ -ATPase receptor purified according to Jorghensen; from tissue
Experiment: inhibition of the activity of the purified Na^+,K^+ -ATPase measured as % of hydrolysis of ^32 P-ATP
Format: biochemical

[
  {
    "MOLECULE": "C[C@]12CC[C@H](O)C[C@H]1CC[C@@H]1[C@@H]2CC[C@]2(C)[C@@H](c3ccoc3)CC[C@]12O [Ref. comp., 17β-(3-furyl)-5β-androstane-3β, 14β-diol, reference compound]",
    "TEST_TARGET": "Na^+,K^+ -ATPase (Canis lupus familiaris)",
    "IC50 / nM": 2000
  },
  {
    "MOLECULE": "C[C@]12CC[C@H](OCCOCCN3CCCC3)C=C1CC[C@@H]1[C@@H]2CC[C@@]2(C)[C@H]1CC[C@@]2(OCCN)c1ccoc1 [Comp. I-aq]",
    "TEST_TARGET": "Na^+,K^+ -ATPase (Canis lupus familiaris)",
    "IC50 / nM": 2510
  },
  {
    "MOLECULE": "C[C@]12CC[C@H](OCCN3CCCC3)C[C@@H]1CC[C@@H]1[C@@H]2CC[C@@]2(C)[C@H]1CC[C@@]2(OCCN1CCCC1)c1ccoc1 [Comp. I-ak]",
    "TEST_TARGET": "Na^+,K^+ -ATPase (Canis lupus familiaris)",
    "IC50 / nM": 5010
  },
  {
    "MOLECULE": "C[C@]12CC[C@H](OCCN3CCCC3)C[C@H]1CC[C@@H]1[C@@H]2CC[C@@]2(C)[C@H]1CC[C@@]2(OCCN1CCCC1)c1ccoc1 [Comp. I-ad]",
    "TEST_TARGET": "Na^+,K^+ -ATPase (Canis lupus familiaris)",
    "IC50 / nM": 3160
  }
]

---

// reported IC50 per item
Target: Na^+,K^+ -ATPase (Canis lupus familiaris, UniProt P50997)
Construct: Na^+,K^+ -ATPase receptor purified according to Jorghensen; from tissue
Experiment: inhibition of the activity of the purified Na^+,K^+ -ATPase measured as % of hydrolysis of ^32 P-ATP
Format: biochemical
Conditions: hydrolysis of ^32 P-ATP, purified Na^+,K^+ -ATPase; read-out: Inhibitory Activity log IC50 (converted)

[
  {
    "MOLECULE": "C[C@]12CC[C@H](OCCOCCN3CCCC3)C[C@@H]1CC[C@@H]1[C@@H]2CC[C@@]2(C)[C@H]1CC[C@@]2(OCCN)c1ccoc1 [Comp. I-am]",
    "TEST_TARGET": "Na^+,K^+ -ATPase (Canis lupus familiaris, UniProt P50997)",
    "IC50 (µM)": 1.58
  },
  {
    "MOLECULE": "C[C@]12CC[C@H](OCCCN)C[C@@H]1CC[C@@H]1[C@@H]2CC[C@@]2(C)[C@H]1CC[C@@]2(O)c1ccoc1 [Comp. I-ai]",
    "TEST_TARGET": "Na^+,K^+ -ATPase (Canis lupus familiaris, UniProt P50997)",
    "IC50 (µM)": 1.58
  },
  {
    "MOLECULE": "C[C@]12CC[C@H](OCCOCCN3CCCC3)CC1=CC[C@@H]1[C@@H]2CC[C@@]2(C)[C@H]1CC[C@@]2(OCCN1CCCC1)c1ccoc1 [Comp. I-ay]",
    "TEST_TARGET": "Na^+,K^+ -ATPase (Canis lupus familiaris, UniProt P50997)",
    "IC50 (µM)": 1.58
  },
  {
    "MOLECULE": "C[C@]12CC[C@H](OCCOCCN3CCCC3)C[C@@H]1CC[C@@H]1[C@@H]2CC[C@@]2(C)[C@H]1CC[C@@]2(O)c1ccoc1 [Comp. I-al]",
    "TEST_TARGET": "Na^+,K^+ -ATPase (Canis lupus familiaris, UniProt P50997)",
    "IC50 (µM)": 1.58
  },
  {
    "MOLECULE": "C[C@]12CC[C@H](SCCOCCN3CCCC3)C[C@@H]1CC[C@@H]1[C@@H]2CC[C@@]2(C)[C@H]1CC[C@@]2(OCCN1CCCC1)c1ccoc1 [Comp. I-ca]",
    "TEST_TARGET": "Na^+,K^+ -ATPase (Canis lupus familiaris, UniProt P50997)",
    "IC50 (µM)": 2
  }
]
